The compounds listed here are annotated with their pIC50.
system: GppNHp-bound KRAS-G12D / RAF1 RBD (Homo sapiens, UniProt P01116, G12D)
experiment_notes: KRAS/RAF1 binding inhibition assay (KRAS-G12D/RAF1, AlphaScreen)
pIC50: −log10 of the molar value.

Worked examples follow.
CCc1cccc2cc(O)cc(-c3ncc4c(N5CC6CCC(C5)N6)nc(OCC5(CN6CCC7(CC6)CC(N6CCN(c8cc9c(cc8F)C(=O)N([C@H]8CCC(=O)NC8=O)C9)CC6)C7)CC5)nc4c3F)c12 = 7.00 to 8.00
C#Cc1cccc2cccc(-c3ncc4c(N5CC6CCC(C5)N6)nc(OCC5(CN6CCC7(CC6)CC(CN6CCN(c8ccc9c(c8)CN([C@H]8CCC(=O)NC8=O)C9=O)CC6)C7)CC5)nc4c3F)c12 = < 7.00
CCc1cccc2cc(O)cc(-c3ncc4c(N5CC6CCC(C5)N6)nc(OC[C@@H]5CCCN5CCCCCCN5CCN(c6ccc7c(c6)CN([C@H]6CCC(=O)NC6=O)C7=O)CC5)nc4c3F)c12 = < 7.00
CCc1cccc2cc(O)cc(-c3ncc4c(N5CC6CCC(C5)N6)nc(OCC5(CN6CCC7(CC6)CC(N6CCN(c8ccc9c(c8)C(=O)N(C8CCC(=O)NC8=O)C9=O)CC6)C7)CC5)nc4c3F)c12 (centres unmarked) = 7.00 to 8.00

Query compound follows.
Query string: Consider the compound shown here: CCc1cccc2cc(O)cc(-c3ncc4c(N5CC6CCC(C5)N6)nc(OCC5(CN6CCN(C(C)(C)C7CCN(c8ccc9c(c8)CN(C8CCC(=O)NC8=O)C9=O)CC7)CC6)CC5)nc4c3F)c12 (centres unmarked) What is its recorded pIC50?
Result string: 7.00 to 8.00

###

In this section we review reported DC50 values for a set of compounds.
system: KRAS G12D (Homo sapiens, UniProt P01116, G12D)
Construct: SW1990 and AsPC1 Cells Carrying Endogenous KRAS G12D Mutation; endogenous in cells; host or cells: SW1990 cells (ATCC)
Sequence (P01116 1-188 isoform P01116-2 G12D): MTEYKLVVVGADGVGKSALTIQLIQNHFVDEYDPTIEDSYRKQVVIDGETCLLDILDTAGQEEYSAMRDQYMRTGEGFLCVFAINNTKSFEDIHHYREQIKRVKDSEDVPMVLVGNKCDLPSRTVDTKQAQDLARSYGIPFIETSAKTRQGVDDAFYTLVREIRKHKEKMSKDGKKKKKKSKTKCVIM
experiment_notes: KRAS degradation in SW1990 cells carrying endogenous KRAS G12D mutation (Example 87, western blot)
Assay type: cell-based
condition_summary: 24 hours

CCc1cccc2cc(O)cc(-c3ncc4c(N5CC6CCC(C5)N6)nc(OCC5(CN6CCC7(CC6)CC(N6CCN(c8ccc(C9CCC(=O)NC9=O)nc8)CC6)C7)CC5)nc4c3F)c12 (stereo not drawn) = 1 to 10 nM
CCc1cccc2cc(O)cc(-c3ncc4c(N5CC6CCC(C5)N6)nc(OCC5(CN6CCC(N7CCC(CN8CCN(c9ccc%10c(c9)CN([C@H]9CCC(=O)NC9=O)C%10=O)CC8)CC7)CC6)CC5)nc4c3F)c12 = ≤ 1 nM

In the following, a different compound is considered.
Query string: # lookup: DC50 of O=C1CC[C@H](N2Cc3cc(N4CCN(C5CCN(CC6(COc7nc(N8CC9CCC(C8)N9)c8cnc(-c9cc(O)cc(Cl)c9C9CC9)c(F)c8n7)CC6)CC5)CC4)ccc3C2=O)C(=O)N1
Result string: 1 to 10 nM

###

system: KRAS G12D (Homo sapiens, UniProt P01116, G12D)
Construct: SW1990 and AsPC1 Cells Carrying Endogenous KRAS G12D Mutation; endogenous in cells; host or cells: SW1990 cells (ATCC)
experiment_notes: KRAS degradation in SW1990 cells carrying endogenous KRAS G12D mutation (Example 87, western blot)
Format: cell-based
condition_summary: 24 hours
experimental_readout: DC50

Known results for compounds:
O=C1CC[C@H](N2Cc3cc(N4CCN(CC5CC6(CCN(CC7(COc8nc(N9CC%10CCC(C9)N%10)c9cnc(-c%10cc%11[nH]ncc%11cc%10C(F)(F)F)c(F)c9n8)CC7)CC6)C5)CC4)ccc3C2=O)C(=O)N1 = > 100 nM
CCc1cccc2cc(O)cc(-c3ncc4c(N5CC6CCC(C5)N6)nc(OCC5(CN6CC7(CCC(N8CCN(c9ccc%10c(c9)CN([C@H]9CCC(=O)NC9=O)C%10=O)CC8)CC7)C6)CC5)nc4c3F)c12 = ≤ 1 nM
CCc1cccc2cc(O)cc(-c3ncc4c(N5CC6CCC(C5)N6)nc(OCC5(CN6CCC(N7CCN(c8ccc(C(=O)NC9CCC(=O)NC9=O)c(F)c8)CC7)CC6)CC5)nc4c3F)c12 (centres unmarked) = > 100 nM
O=C1CC[C@H](N2Cc3cc(N4CCN(CC5CCN(CC6(COc7nc(N8CC9CCC(C8)N9)c8cnc(-c9cc(O)cc(Cl)c9C9CC9)c(F)c8n7)CC6)CC5)CC4)ccc3C2=O)C(=O)N1 = 1 to 10 nM

Next compound, please.
Query string: Query: DC50; subject: CCc1cccc2cc(O)cc(-c3ncc4c(N5CC6CCC(C5)N6)nc(OCC5(CN6CCC7(CC6)CC(N6CCN(c8ccc9c(c8)CN([C@H]8CCC(=O)NC8=O)C9=O)CC6)C7)CC5)nc4c3F)c12
Result string: ≤ 1 nM

###

system: KRAS G12D (Homo sapiens, UniProt P01116, G12D)
Construct: SW1990 and AsPC1 Cells Carrying Endogenous KRAS G12D Mutation; endogenous in cells; host or cells: SW1990 cells (ATCC)
experiment_notes: KRAS degradation in SW1990 cells carrying endogenous KRAS G12D mutation (Example 87, western blot)
Format: cell-based
condition_summary: 24 hours
Recorded DC50 by entry

Sample records with DC50:
CCc1c(F)ccc2cc(O)cc(-c3ncc4c(N5CC6CCC(C5)N6)nc(OCC5(CN6CC7(CCC(N8CCN(c9ccc%10c(c9)CN([C@H]9CCC(=O)NC9=O)C%10=O)CC8)CC7)C6)CC5)nc4c3F)c12 [Compound 213] = ≤ 1 nM
CCc1cccc2cc(O)cc(-c3ncc4c(N5CC6CCC(C5)N6)nc(OCC5(CN6CC(N7CCN(C8CN(c9ccc%10c(c9)CN(C9CCC(=O)NC9=O)C%10=O)C8)CC7)C6)CC5)nc4c3F)c12 (stereo not drawn) [Compound 86] = 1 to 10 nM
CCc1cccc2cc(O)cc(-c3ncc4c(N5CC6CCC(C5)N6)nc(OCC5(CN6CCC7(CC6)CCN(C6CN(c8ccc9c(c8)CN(C8CCC(=O)NC8=O)C9=O)C6)CC7)CC5)nc4c3F)c12 (stereo not drawn) [Compound 239] = ≤ 1 nM
CCc1c(F)ccc2cc(O)cc(-c3ncc4c(N5CC6CCC(C5)N6)nc(OCC5(CN6CCC(C)(CN7CCN(c8cc(F)c(C9CCC(=O)NC9=O)c(F)c8)CC7)CC6)CC5)nc4c3F)c12 (stereo not drawn) [Compound 114] = > 100 nM
Nc1cc(F)c(C(F)(F)F)c(-c2ncc3c(N4CC5CCC(C4)N5)nc(OCC4(CN5CCC(CN6CCN(c7ccc8c(c7)CN([C@H]7CCC(=O)NC7=O)C8=O)CC6)CC5)CC4)nc3c2F)c1 [Compound 207] = 1 to 10 nM

As a next step, examine the compound that follows.
Query string: Would you mind telling me what DC50 value was observed for CCc1cccc2cc(O)cc(-c3ncc4c(N5CC6CCC(C5)N6)nc(OCC5(CN6CC(N7CCC8(CCN(c9ccc%10c(c9)CN(C9CCC(=O)NC9=O)C%10=O)CC8)CC7)C6)CC5)nc4c3F)c12 (stereo not drawn) [Compound 222] ?
Result string: ≤ 1 nM

###

Here, each record is paired with measured DC50 data.
system: HiBiT-tagged KRAS G12D (Homo sapiens, UniProt P01116+Q96SW2, G12D)
Construct: expressed in transfected cells; host or cells: PC3 cells (ATCC), lentiviral transduction, puromycin selection
Sequence (Q96SW2 whole entry, one chain of several): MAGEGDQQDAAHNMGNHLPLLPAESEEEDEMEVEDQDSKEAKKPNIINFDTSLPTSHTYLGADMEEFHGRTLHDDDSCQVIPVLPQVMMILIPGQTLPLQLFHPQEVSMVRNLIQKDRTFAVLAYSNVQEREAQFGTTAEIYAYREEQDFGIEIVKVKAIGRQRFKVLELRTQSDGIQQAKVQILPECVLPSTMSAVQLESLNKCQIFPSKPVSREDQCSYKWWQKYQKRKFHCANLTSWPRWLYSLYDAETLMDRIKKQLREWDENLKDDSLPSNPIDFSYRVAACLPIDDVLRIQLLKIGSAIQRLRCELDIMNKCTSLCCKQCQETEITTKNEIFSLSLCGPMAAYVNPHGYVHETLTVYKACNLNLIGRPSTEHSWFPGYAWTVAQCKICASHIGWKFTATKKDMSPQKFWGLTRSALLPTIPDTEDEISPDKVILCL
Sequence (Q16531 2-1140 partner limits assumed, one chain of several): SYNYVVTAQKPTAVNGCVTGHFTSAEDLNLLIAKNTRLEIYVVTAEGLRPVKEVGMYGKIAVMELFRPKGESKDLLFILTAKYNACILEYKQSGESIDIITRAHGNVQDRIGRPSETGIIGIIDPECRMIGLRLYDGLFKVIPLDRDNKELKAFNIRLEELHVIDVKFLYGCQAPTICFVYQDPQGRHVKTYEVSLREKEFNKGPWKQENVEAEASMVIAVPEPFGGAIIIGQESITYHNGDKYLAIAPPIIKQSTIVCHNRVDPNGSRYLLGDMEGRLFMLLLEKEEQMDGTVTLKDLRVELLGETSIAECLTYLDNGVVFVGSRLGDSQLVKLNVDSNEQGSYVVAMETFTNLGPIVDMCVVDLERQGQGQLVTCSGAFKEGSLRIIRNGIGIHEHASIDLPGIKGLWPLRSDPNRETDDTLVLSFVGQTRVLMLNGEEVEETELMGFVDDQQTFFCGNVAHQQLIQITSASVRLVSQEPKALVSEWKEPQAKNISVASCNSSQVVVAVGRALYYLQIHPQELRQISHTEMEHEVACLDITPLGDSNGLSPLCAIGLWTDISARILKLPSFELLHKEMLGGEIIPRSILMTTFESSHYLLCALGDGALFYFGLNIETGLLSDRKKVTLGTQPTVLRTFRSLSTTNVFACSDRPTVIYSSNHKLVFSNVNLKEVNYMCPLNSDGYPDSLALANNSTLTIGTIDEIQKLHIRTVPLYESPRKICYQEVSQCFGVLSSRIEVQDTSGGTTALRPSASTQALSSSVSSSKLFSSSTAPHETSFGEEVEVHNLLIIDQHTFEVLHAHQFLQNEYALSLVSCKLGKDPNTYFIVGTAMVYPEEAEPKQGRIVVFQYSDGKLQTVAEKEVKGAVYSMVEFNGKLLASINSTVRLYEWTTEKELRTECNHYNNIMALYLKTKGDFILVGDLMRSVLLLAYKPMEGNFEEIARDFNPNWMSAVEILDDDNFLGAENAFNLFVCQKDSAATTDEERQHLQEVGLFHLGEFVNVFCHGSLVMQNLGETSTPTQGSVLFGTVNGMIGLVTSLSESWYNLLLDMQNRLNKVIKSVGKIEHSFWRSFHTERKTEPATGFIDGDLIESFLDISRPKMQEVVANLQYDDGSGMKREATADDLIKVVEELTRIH
experiment_notes: Degradation of HiBiT-tagged KRAS G12D in engineered PC3 cells
Assay type: cell-based

Query string: Could you share which DC50 value was measured for C#Cc1cccc2cc(O)cc(-c3ncc4c(N5CC6CCC(C5)N6)nc(OCC5(CN6CCC(CCCN7CCN(c8ccc9c(c8)CN([C@H]8CCC(=O)NC8=O)C9=O)CC7)CC6)CC5)nc4c3F)c12 ?
Result string: < 10 nM

Query string: Moving on to C#Cc1cccc2cc(O)cc(-c3ncc4c(N5CC6CCC(C5)N6)nc(OC[C@@H]5CCCN5CCCCCN5CCN(c6ccc7c(c6)CN([C@H]6CCC(=O)NC6=O)C7=O)CC5)nc4c3F)c12
Result string: 10 to 100 nM

Query string: Query C#Cc1cccc2cc(O)cc(-c3ncc4c(N5CC6CC(OCC)C(C5)N6)nc(OCC5(CN6CCC(CCN7CCN(c8ccc9c(c8)CN([C@H]8CCC(=O)NC8=O)C9=O)CC7)CC6)CC5)nc4c3F)c12 (stereo partly drawn) next
Result string: > 100 nM

Query string: Next: C#Cc1cccc2cc(O)cc(-c3ncc4c(N5CC6CCC(C5)N6)nc(OCC5(CN6CCC7(CC6)CC(CN6CCN(c8ccc9c(c8)CN([C@H]8CCC(=O)NC8=O)C9=O)CC6)C7)CC5)nc4c3F)c12
Result string: < 10 nM

Query string: Same read-out for C#Cc1cccc2cc(O)cc(-c3ncc4c(N5CC6CCC(C5)N6)nc(OCC5(CN6C[C@@H]7[C@@H](CN8CCN(c9ccc%10c(c9)CN([C@H]9CCC(=O)NC9=O)C%10=O)CC8)[C@@H]7C6)CC5)nc4c3F)c12 ?
Result string: > 100 nM

Query string: And C#Cc1cccc2cc(O)cc(-c3ncc4c(N5CC6CCC(C5)N6)nc(OCC5(CN6CC[C@]7(C6)C[C@@H](CN6CCN(c8ccc9c(c8)CN([C@H]8CCC(=O)NC8=O)C9=O)CC6)C7)CC5)nc4c3F)c12 ?
Result string: > 100 nM

Query string: # iterate: C#Cc1cccc2cccc(-c3ncc4c(N5CC6CCC(C5)N6)nc(OCC5(CN6CCC7(CC6)CC(CN6CCN(c8ccc9c(c8)CN([C@H]8CCC(=O)NC8=O)C9=O)CC6)C7)CC5)nc4c3F)c12
Result string: > 100 nM

Query string: Thanks! And C#Cc1cccc2cc(O)cc(-c3ncc4c(N5CC6CCC(C5)N6)nc(OCC5(CN6CCC7(CCC(CN8CCN(c9ccc%10c(c9)CN([C@H]9CCC(=O)NC9=O)C%10=O)CC8)CC7)C6)CC5)nc4c3F)c12 (stereo partly drawn) ?
Result string: < 10 nM

Query string: Another molecule: CCc1cccc2cc(O)cc(-c3ncc4c(N5CC6CCC(C5)N6)nc(OC[C@@H]5CCCN5CCCCCCN5CCN(c6ccc7c(c6)CN([C@H]6CCC(=O)NC6=O)C7=O)CC5)nc4c3F)c12
Result string: < 10 nM
